- measured.on: INF-γ-induced IDO-1 activity (Homo sapiens, UniProt P14902)
- Sequence (P14902 whole entry): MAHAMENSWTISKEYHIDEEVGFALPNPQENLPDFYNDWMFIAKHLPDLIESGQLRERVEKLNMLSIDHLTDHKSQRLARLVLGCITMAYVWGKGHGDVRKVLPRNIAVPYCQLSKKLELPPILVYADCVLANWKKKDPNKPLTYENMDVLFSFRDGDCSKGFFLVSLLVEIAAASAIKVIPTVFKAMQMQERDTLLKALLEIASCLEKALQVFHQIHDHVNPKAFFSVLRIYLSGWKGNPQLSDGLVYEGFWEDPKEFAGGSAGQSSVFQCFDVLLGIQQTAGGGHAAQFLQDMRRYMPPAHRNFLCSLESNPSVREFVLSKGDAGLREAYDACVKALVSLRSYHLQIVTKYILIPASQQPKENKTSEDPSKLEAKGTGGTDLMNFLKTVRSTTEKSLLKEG
- protocol.details: INF-γ-induced IDO-1 activity
parameter: pIC50
pIC50 is a log-scale quantity: -log10 of the concentration expressed in molar.

input: Which pIC50 value is on record for COc1ccc2[nH]cc(/C=C/c3ccc(O)cc3)c2c1 ?
output: 4.97

---

- measured.on: Human Recombinant IDO-1 (Homo sapiens)
- protocol.details: HR-IDO-1 enzymatic inhibition assay
parameter: pIC50
pIC50 is a log-scale quantity: -log10 of the concentration expressed in molar.

input: Which pIC50 value is on record for COc1ccc2[nH]cc(/C=C/c3ccc(O)cc3)c2c1 ?
output: 5.55
